- System: SF-539 CNS
- procedure summary: NCI-60 one-dose screen, 48 h
- experimental context: 10 µM unless noted
The panel holds about 83,000 compounds, 20% with a hit somewhere; the sample as a whole holds those more often. Active and inactive are the calls of the source. Rule for the calls: active = growth percent below 10; inactive = the rest.
API: response.call in 1.0 = active, 0.0 = inactive

Task: Outcome logged for "CCOC(CNCc1cc(C)c2[nH]c3ccccc3c2c1C)OCC" in this assay:
Output: 0.0

Task: Outcome logged for Clc1ccc(C2=NN(c3ccc(Cl)cc3)C(c3cccc(Nc4ccnc5cc(Cl)ccc45)c3)C2)cc1 (configuration not stated) in this assay:
Output: 0.0

Task: Outcome logged for "O=Cc1ccccc1C(=O)O" in this assay:
Output: 0.0

Task: Outcome logged for "COc1cc(/C(Cl)=C/C=C/C(=O)c2c(C)[n+]([O-])c3ccc(Cl)cc3[n+]2[O-])cc(OC)c1OC" in this assay:
Output: 0.0

Task: Outcome logged for "CCCCCCCCCCN1CCC(N2CCCCC2)CC1" in this assay:
Output: 1.0

Task: Outcome logged for Nc1nc(NC2CC2)c2ncn(C3C=CC(CO)C3)c2n1 (configuration not stated) in this assay:
Output: 0.0

Task: Outcome logged for "O=Nc1c2cccnc2n2nnc3ccc(Cl)cc3c12" in this assay:
Output: 0.0

Task: Outcome logged for "O=C(O)C1CCN(S(=O)(=O)c2ccc(-c3ccccc3)cc2)CC1" in this assay:
Output: 0.0

Task: Outcome logged for Clc1ccc(C2c3ccccc3-c3nccn32)c(Cl)c1 (configuration not stated) in this assay:
Output: 0.0

Task: Outcome logged for "COc1cccc(CCN2C(=O)CCC3=C2CCC3=O)c1" in this assay:
Output: 0.0

Task: Outcome logged for "Oc1c(N=Nc2nn[nH]n2)ccc2ccccc12" in this assay:
Output: 0.0

Task: Outcome logged for "CC(C)C[C@H](NC(=O)/C=C/Cn1ccc2ccccc2c1=O)B(O)O" in this assay:
Output: 0.0

Task: Outcome logged for "CCOC(=O)CNC(=O)C1(NC(=O)CNC(=O)OCc2ccccc2)CCCC1" in this assay:
Output: 0.0

Task: Outcome logged for "O=C(O)c1ccc(CNS(=O)(=O)c2ccc3ccccc3c2)cc1" in this assay:
Output: 0.0

Task: Outcome logged for "COc1cnc2c(c1)C(=O)c1c-2n(CCCNC2=NCCS2)c(=O)c2cc(F)ccc12" in this assay:
Output: 1.0

Task: Outcome logged for CC[C@@H](C)/C=C(C)/C=C/C(=O)c1c(O)c(-c2ccc(O)cc2)cn(OC2CC(=O)CCC(C)OC(=O)CC2O)c1=O (some centres not stated) in this assay:
Output: 1.0

Task: Outcome logged for "Cc1sc2nc(NCc3ccccc3)[nH]c(=O)c2c1C" in this assay:
Output: 0.0

Task: Outcome logged for "N#Cc1ccccc1C#Cc1ccccc1C#Cc1ccc(OCCCCCCOc2ccc(C#Cc3ccccc3C#Cc3ccccc3C#N)cc2)cc1" in this assay:
Output: 0.0

Task: Outcome logged for "O=C(CN1CCN(c2ccc(Cl)cc2)CC1)N1CCN(c2nnc(-c3ccc(Cl)cc3)c(-c3ccc(Cl)cc3)n2)CC1" in this assay:
Output: 0.0

Task: Outcome logged for CCOC(=O)C1=CCC(n2cc(C)c(=O)[nH]c2=O)O1 (configuration not stated) in this assay:
Output: 0.0

Task: Outcome logged for "CC(=O)/C(=C/c1ccc(Cl)cc1)C(=O)c1ccccc1" in this assay:
Output: 0.0

Task: Outcome logged for "CCOC(=O)c1sc(NC(=O)COc2ccc(/C=C3\CCc4cc(OC)ccc4C3=O)cc2)nc1C" in this assay:
Output: 0.0

Task: Outcome logged for "COc1cc(-c2n[nH]nc2-c2ccccn2)cc(OC)c1OC" in this assay:
Output: 0.0

Task: Outcome logged for "CCSc1nc(-c2ccco2)n2nc(-c3ccco3)cc2n1" in this assay:
Output: 0.0

Task: Outcome logged for O=CN1N=C(c2ccc(Nc3ccnc4cc(Cl)ccc34)cc2)CC1c1ccc(Cl)cc1 (configuration not stated) in this assay:
Output: 1.0

Task: Outcome logged for C#C[C@]1(O)CCC2C3CCc4cc(O)ccc4C3CC[C@@]21C (some centres not stated) in this assay:
Output: 0.0

Task: Outcome logged for "CC(C)Sc1nc(Cl)c(C#N)c(-c2ccc(F)cc2)n1" in this assay:
Output: 0.0

Task: Outcome logged for "COP(=O)(OC)C(c1ccccc1)(c1ccccc1)c1ccccc1" in this assay:
Output: 0.0

Task: Outcome logged for "COc1cc(/C=C/C(=O)C(C(=O)/C=C/c2ccc(OC(=O)CCNc3nnc(C)s3)c(OC)c2)C(=O)CCNc2nnc(C)s2)ccc1OC(=O)CCNc1nnc(C)s1" in this assay:
Output: 1.0

Task: Outcome logged for "O=C(N/N=C/c1cccc(O)c1)c1ccc(C(F)(F)F)nc1Nc1cccc(C(F)(F)F)c1" in this assay:
Output: 1.0

Task: Outcome logged for "COc1c(O)cc2c(c1CC=C(C)C)OC(=O)c1c(cc(O)c(CC=C(C)C)c1O)O2" in this assay:
Output: 0.0

Task: Outcome logged for "[N-]=[N+]=NCc1ncc(-c2ccc(C(F)(F)F)cc2)c(NC2CCCCCC2)n1" in this assay:
Output: 0.0

Task: Outcome logged for CN1C(=O)C(C2=NN(C=O)C(c3ccc(F)cc3)C2)C(=O)N(C)C1=O (configuration not stated) in this assay:
Output: 0.0

Task: Outcome logged for "C/C(=C\CCc1ccoc1)CC/C=C(\C)CCCN1CCOCC1" in this assay:
Output: 0.0

Task: Outcome logged for "CCc1ccc(-c2nc(SCC(=O)NC3CCCCC3)n[nH]2)cc1" in this assay:
Output: 0.0

Task: Outcome logged for "Cc1cc(C(=O)Nc2ccc3cc(CN4CCOCC4)ccc3n2)c(C)n1-c1ccccc1" in this assay:
Output: 0.0

Task: Outcome logged for CCN1CC2=C(Nc3nc(SC)[nH]c(=O)c3C2c2cc(OC)c(OC)c(OC)c2)/C(=C/c2cc(OC)c(OC)c(OC)c2)C1 (configuration not stated) in this assay:
Output: 0.0

Task: Outcome logged for "c1ccc(N2c3nc4ccccc4cc3Sc3cc4ccccc4nc32)nc1" in this assay:
Output: 0.0

Task: Outcome logged for "O=C(Nc1nc2ccc(OC(F)(F)F)cc2s1)c1ccc(F)cc1" in this assay:
Output: 0.0

Task: Outcome logged for C/C(=C\CCc1ccoc1)CC/C=C(\C)CCCC1COC(=O)C1 (configuration not stated) in this assay:
Output: 0.0

Task: Outcome logged for "Cc1sc2nc(NCCc3cccs3)[nH]c(=O)c2c1C" in this assay:
Output: 0.0

Task: Outcome logged for "C=C(CN1CCc2c([nH]c3ccccc23)C1)c1ccc(C(=O)Nc2ccon2)cc1" in this assay:
Output: 0.0

----------
- System: IGROV1 ovarian
- procedure summary: NCI-60 one-dose screen, 48 h
- experimental context: 10 µM unless noted
This is part of a sample that, as a whole, favours compounds with a hit. Of some 83,000 tested, about 20% had one in any assay. Calls of active or inactive are those of the source. Rule for the calls: active = growth percent below 10; inactive = the rest.
API: response.call in active, inactive

Task: Outcome logged for "Cc1ccc(-c2c3c(N)c4c(nc3nc3c2c(C)nn3-c2ccccc2)CCC4)cc1" in this assay:
Output: inactive

Task: Outcome logged for "Nc1ncnc2c1CN(Cc1ccccc1)CC2" in this assay:
Output: inactive

Task: Outcome logged for "Cc1cnc2nc(-c3ccc(N(C)C)cc3)cn2c1" in this assay:
Output: active

Task: Outcome logged for "O=C1c2cccc3c([N+](=O)[O-])ccc(c23)C(=O)N1CCCCl" in this assay:
Output: active

Task: Outcome logged for "COc1ccc(-c2cc(-c3cccnc3)nc(S(=O)(=O)CC(=O)Nc3ccc(C)cc3)c2C#N)cc1OC" in this assay:
Output: inactive

Task: Outcome logged for "COc1cc(NC(=O)NCc2ccco2)ccc1-c1ccc(NC(=O)NCc2ccco2)cc1OC" in this assay:
Output: inactive

Task: Outcome logged for Fc1ccccc1C1c2ccccc2-c2nccn21 (stereo not given) in this assay:
Output: inactive

Task: Outcome logged for CC(NC(=O)Oc1cccc2ccccc12)c1ccccc1 (stereo not given) in this assay:
Output: inactive

Task: Outcome logged for "Fc1ccc(-c2nn3c(-c4cc(C(F)(F)F)cc(C(F)(F)F)c4)nnc3s2)cc1" in this assay:
Output: inactive

Task: Outcome logged for "CCSc1nc(Nc2ccc(S(=O)(=O)Nc3ccon3)cc2)c(C#N)c(-c2cccc(Br)c2)n1" in this assay:
Output: inactive

----------
- Test system: MDA-MB-231 breast
- procedure summary: NCI-60 one-dose screen, 48 h
- experimental context: 10 µM unless noted
This is part of a sample that, as a whole, favours compounds with a hit. Of some 83,000 tested, about 20% had one in any assay. Calls of active or inactive are those of the source. How the source made its calls: active means growth percent below 10; inactive means the rest.
API: response.call in 1 (yes) for active, 0 (no) for inactive

Task: Outcome logged for "CC(=O)Nc1ccc(C(=O)COc2ccc(/C=C3\CCc4ccccc4C3=O)cc2)cc1" in this assay:
Output: 0 (no)

Task: Outcome logged for "COC(=O)[C@H](Cc1cnc[nH]1)NC(=O)[C@@H](NC(=O)Nc1cc(C(F)(F)F)cc(C(F)(F)F)c1)C(C)C" in this assay:
Output: 1 (yes)

Task: Outcome logged for "COc1ccc(NC(=O)c2ccccc2-c2ccccc2)c(C(N)=O)c1" in this assay:
Output: 0 (no)

Task: Outcome logged for "CCN(CC)CCCCCCCNc1c2ccc(Cl)cc2nc2ccc(OC)cc12" in this assay:
Output: 1 (yes)

Task: Outcome logged for "CCOc1cc(/C=C/C(=O)C(C(=O)/C=C/c2ccc(OC(=O)CNc3nc4ccccc4[nH]3)c(OCC)c2)C(=O)CNc2nc3ccccc3[nH]2)ccc1OC(=O)CNc1nc2ccccc2[nH]1" in this assay:
Output: 1 (yes)

Task: Outcome logged for "O=C1/C(=C\c2coc3ccccc3c2=O)c2ccccc2N1c1c(Cl)cccc1Cl" in this assay:
Output: 0 (no)

Task: Outcome logged for "C(=C1c2ccccc2-c2ccccc21)c1ccncc1" in this assay:
Output: 0 (no)

Task: Outcome logged for "O=C(Nc1ccc(Cl)cc1)Nc1nc2ccc(OC(F)(F)F)cc2o1" in this assay:
Output: 0 (no)

Task: Outcome logged for "COc1ccc(-c2cnc(SCC(=O)Nc3ccc(-c4nc5ccccc5s4)cc3)n2-c2ccc(OC)cc2)cc1" in this assay:
Output: 0 (no)

Task: Outcome logged for "Cc1cc(Cl)ccc1Nc1nc(C(F)(F)F)ccc1C(=O)N/N=C/c1ccc(Cl)cc1" in this assay:
Output: 1 (yes)

Task: Outcome logged for "NS(=O)(=O)c1ccc(-n2nc(-c3ccc(Br)cc3)ccc2=O)cc1" in this assay:
Output: 0 (no)

Task: Outcome logged for "COc1cc(/C=C/C(=O)c2c(C)n([O-])c3ccccc3[n+]2=O)cc(OC)c1OC" in this assay:
Output: 0 (no)

Task: Outcome logged for CCC(C)C1NC(=O)C(CCNCS(=O)(=O)O)NC(=O)C(NC(=O)C(CCNCS(=O)(=O)O)NC(=O)C(NC(=O)C(CCNCS(=O)(=O)O)NC(=O)CCCCC(C)C)C(C)O)CCNC(=O)C(C(C)O)NC(=O)C(CCNCS(=O)(=O)O)NC(=O)C(CCNCS(=O)(=O)O)NC(=O)C(C(C)CC)NC1=O (configuration not stated) in this assay:
Output: 0 (no)

Task: Outcome logged for "COc1cc(/C=C2\SC(N3CCCCC3)=NC2=O)ccc1OCCCCCCOc1ccc(/C=C2\SC(N3CCCCC3)=NC2=O)cc1OC" in this assay:
Output: 0 (no)

Task: Outcome logged for "O=C(CNC(=O)c1cccc2ccccc12)Nc1ccccc1Oc1ccc(O)cc1" in this assay:
Output: 0 (no)

Task: Outcome logged for "Cn1cc(NC(=O)Nc2cc(C(=O)O)n(C)c2)cc1C(=O)O" in this assay:
Output: 0 (no)

Task: Outcome logged for "Cc1cc(C)nc(NS(=O)(=O)c2ccc(Nc3nc4nc(SCc5ccccc5)nc(-c5ccc(O)cc5)c4c(=O)[nH]3)cc2)n1" in this assay:
Output: 0 (no)

All figures here come from PubChem BioAssay (NCI).
